# SYSTEM_NAME: CYP2B6 (Homo sapiens, UniProt P20813)
# ASSAY_COMMENT: Activity of CYP2B6 (unknown origin) pre-incubated for 5 mins in presence of NADPH by uHPLC-MS/MS based substrate depletion kinetics assay
# Format: ADME
# STATED_CONDITIONS: CYP2B6 enzyme (unknown origin)
QUANTITY_MEASURED: Km (µM)

O=C1Nc2ccc(Cl)cc2[C@@](/C=C/C2CC2)(C(F)(F)F)O1: 0.23
FC(F)(F)[C@@]1(C#CC2CC2)OCNc2ccc(Cl)cc21: 0.22

P. O=C1Nc2ccc(Cl)cc2[C@@](C#CC2CC2)(C(F)(F)F)O1 [EFAVIRENZ]
Q. CCCC#CC1(C(F)(F)F)OC(=O)Nc2ccc(Cl)cc21 (racemic)
Task: Look at P and Q . Which one has the lower recorded Km number? Use the label to indicate which entry you chose.
Result: P
(P: 0.45 µM, Q: 1.1 µM)

---

# SYSTEM_NAME: Cytochrome P450 2B6 (Homo sapiens, UniProt P20813)
# Sequence (P20813 whole entry): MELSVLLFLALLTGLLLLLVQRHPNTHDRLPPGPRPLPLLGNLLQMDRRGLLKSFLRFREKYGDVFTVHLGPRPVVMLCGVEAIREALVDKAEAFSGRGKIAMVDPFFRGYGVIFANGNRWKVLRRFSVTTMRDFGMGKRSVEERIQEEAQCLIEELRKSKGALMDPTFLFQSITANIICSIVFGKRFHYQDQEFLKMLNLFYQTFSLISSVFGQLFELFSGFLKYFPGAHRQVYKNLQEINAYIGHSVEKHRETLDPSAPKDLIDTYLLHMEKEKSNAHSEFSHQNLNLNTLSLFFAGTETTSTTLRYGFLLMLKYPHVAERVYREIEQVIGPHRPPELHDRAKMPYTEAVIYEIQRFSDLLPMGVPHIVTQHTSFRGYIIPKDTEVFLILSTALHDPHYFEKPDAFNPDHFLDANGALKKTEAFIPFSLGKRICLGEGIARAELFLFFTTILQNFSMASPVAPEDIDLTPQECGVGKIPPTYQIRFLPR
# ASSAY_COMMENT: Activity of CYP2B6 (unknown origin) assessed per pmol protein pre-incubated for 5 mins in presence of NADPH by uHPLC-MS/MS based substrate depletion kinetics assay
# Format: ADME
QUANTITY_MEASURED: Vmax (pmol/min)

O=C1Nc2ccc(Cl)cc2[C@@](C#CC2CC2)(C(F)(F)F)O1: 1

I. CCCC#CC1(C(F)(F)F)OC(=O)Nc2ccc(Cl)cc21 (racemic)
II. FC(F)(F)[C@@]1(C#CC2CC2)OCNc2ccc(Cl)cc21
III. O=C1Nc2ccc(Cl)cc2[C@@](/C=C/C2CC2)(C(F)(F)F)O1
Task: Ascending by Vmax, please: list the molecules accordingly. Record the ranking as a list of labels in the requested order.
Result: III, I, II

---

# SYSTEM_NAME: CYP2B6 (Homo sapiens, UniProt P20813)
# ASSAY_COMMENT: Inhibition of CYP2B6 (unknown origin) assessed as reduction in hydroxybupropion formation at 10 uM incubated for 10 mins by uHPLC-MS/MS method
# Assay type: ADME
# STATED_CONDITIONS: CYP2B6 enzyme (unknown origin), probe bupropion (hydroxybupropion formation)
QUANTITY_MEASURED: inhibition at 10 min, 10 µM (%)
The reply should contain only the number, in %.

Task: // query inhibition at 10 min, 10 µM value for entry `O=C1Nc2ccc(Cl)cc2[C@@](C#CC2CC2)(C(F)(F)F)O1`
Result: 93

---

# ASSAY_COMMENT: Retention time of the compound by uHPLC-MS/MS method
# Format: physicochemical
QUANTITY_MEASURED: Retention_time (min)

Nc1ccc(Cl)cc1[C@@](O)(C#CC1CC1)C(F)(F)F: 7.31
O=C1Nc2ccc(Cl)cc2[C@@](/C=C/C2(O)CC2)(C(F)(F)F)O1: 4.98
CC(O)CC#CC1(C(F)(F)F)OC(=O)Nc2ccc(Cl)cc21 (configuration not stated): 5.11
Nc1ccc(Cl)cc1[C@](O)(C#CC1CC1)C(F)(F)F: 7.25
CCCC#CC1(C(F)(F)F)OC(=O)Nc2c(O)cc(Cl)cc21 (configuration not stated): 6.98
OC1(C#C[C@]2(C(F)(F)F)OCNc3ccc(Cl)cc32)CC1: 5
CCC(O)C#CC1(C(F)(F)F)OC(=O)Nc2ccc(Cl)cc21 (configuration not stated): 5.6

---

# SYSTEM_NAME: CYP2B6 (Homo sapiens, UniProt P20813)
# Sequence (P20813 whole entry): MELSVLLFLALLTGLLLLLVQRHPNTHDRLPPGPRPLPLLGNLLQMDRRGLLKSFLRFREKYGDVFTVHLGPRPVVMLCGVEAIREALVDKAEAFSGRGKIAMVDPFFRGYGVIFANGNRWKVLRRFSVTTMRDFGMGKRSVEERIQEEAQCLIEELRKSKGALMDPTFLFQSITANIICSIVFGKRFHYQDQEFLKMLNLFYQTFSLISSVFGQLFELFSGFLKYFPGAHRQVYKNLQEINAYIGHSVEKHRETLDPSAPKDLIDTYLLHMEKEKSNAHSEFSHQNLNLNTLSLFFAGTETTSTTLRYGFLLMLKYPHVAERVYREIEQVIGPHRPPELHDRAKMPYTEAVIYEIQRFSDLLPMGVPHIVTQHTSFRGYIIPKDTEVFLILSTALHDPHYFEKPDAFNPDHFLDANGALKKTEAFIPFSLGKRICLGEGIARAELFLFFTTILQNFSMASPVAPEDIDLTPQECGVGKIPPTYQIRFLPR
# ASSAY_COMMENT: Inhibition of CYP2B6 (unknown origin) assessed as reduction in hydroxybupropion formation by measuring remaining enzyme activity at 10 uM incubated for 10 mins by uHPLC-MS/MS method
# Assay type: ADME
# STATED_CONDITIONS: probe bupropion (hydroxybupropion formation), read-out: Activity
QUANTITY_MEASURED: activity at 10 min, 10 µM (%)

Use these answered entries as a reference point.
COc1ccc(CNc2ccc(Cl)cc2[C@](O)(C#CC2CC2)C(F)(F)F)cc1: 62
CCCC#CC1(C(F)(F)F)OC(=O)Nc2ccc(Cl)cc21 (racemic): 27

a. COc1ccc(CNc2ccc(Cl)cc2[C@@](O)(C#CC2CC2)C(F)(F)F)cc1
b. FC(F)(F)[C@@]1(C#CC2CC2)OCNc2ccc(Cl)cc21
Task: Look at a and b . Which one has the lower recorded activity at 10 min, 10 µM number? Use the label to indicate which entry you chose.
Result: b

---

# SYSTEM_NAME: Cytochrome P450 2B6 (Homo sapiens)
# ASSAY_COMMENT: Activity of CYP2B6 (unknown origin) assessed as maximum depletion rate constant pre-incubated for 5 mins in presence of NADPH by uHPLC-MS/MS based substrate depletion kinetics assay
# Format: ADME
QUANTITY_MEASURED: K (min⁻¹)

P. CCCC#CC1(C(F)(F)F)OC(=O)Nc2ccc(Cl)cc21 (racemic)
Q. FC(F)(F)[C@@]1(C#CC2CC2)OCNc2ccc(Cl)cc21
R. O=C1Nc2ccc(Cl)cc2[C@@](C#CC2CC2)(C(F)(F)F)O1 [EFAVIRENZ]
S. O=C1Nc2ccc(Cl)cc2[C@@](/C=C/C2CC2)(C(F)(F)F)O1
Task: Sort the 4 compounds by K; largest first, smallest last. Record the ranking as a list of labels in the requested order.
Result: Q, R, P, S
(Q: 0.14 min⁻¹, R: 0.023 min⁻¹, P: 0.0088 min⁻¹, S: 0.0057 min⁻¹)
